Data origin, for the record: paper PMC10359491

Biological target: human neutrophil elastase (HNE) (Homo sapiens, UniProt P08246 30-267)
Sequence (P08246 30-267): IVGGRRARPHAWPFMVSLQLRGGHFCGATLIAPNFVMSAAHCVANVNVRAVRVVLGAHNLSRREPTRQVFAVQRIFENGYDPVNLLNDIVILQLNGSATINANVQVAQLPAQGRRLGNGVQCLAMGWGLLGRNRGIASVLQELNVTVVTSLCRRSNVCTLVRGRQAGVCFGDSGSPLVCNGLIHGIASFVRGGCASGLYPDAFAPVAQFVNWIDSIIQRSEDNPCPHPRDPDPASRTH
Experiment: enzyme inhibition; DQ gelatin substrate; competitive; ELISA: PBS pH 7.4, 5 mM MgCl2, 10 mM KCl, 0.01% Tween 20, 20 min (temperature not stated); inhibition: 50 mM Tris pH 7.5, 150 mM NaCl, 10 mM KCl, 5 mM MgCl2, 0.02% Tween 20, 37 C
Details: protein: commercial; label: biotin (ELISA); predicted: 2 G4, 2 hairpin loops (not tested)
attribute measured: pKi
Please treat pKi as minus the base-10 logarithm of the molar concentration.

Record aptamer E12 (ssDNA) DNA: CATGCTTCCCCAGGGAGATGGGCGTGGGGGTTGGGTATGGTGCTTGAGGGGCCTGGAGGAACATGCGTCGCAAAC , field pKi: 7.66
